TARGET_OF_ASSAY: T1, human plasma Kallikrein (human, UniProt P03952 20-638, limits assumed)
T1 construct: also called hPK; human PK
MEASUREMENT_NOTES: enzyme inhibition assay
Numbered stars: 1 amine (or outer) side, 2 acyl side, 3 side chain; on linkers, the order of the positions; unused ones are H or OH. Bridge positions count the residues as written; N and C are the ends. Square brackets hold non-standard residues; d marks the D form. Phe(4-guanidino) = N=C(N)Nc1ccc(C[C@H](N)C(=O)O)cc1; TBMB = c1c(C[*:1])cc(C[*:3])cc1C[*:2]

BINDER: Ac-CSWPA[Phe(4-guanidino)]CLHQDLC-NH2 (linker 1-7-13 via TBMB; SMILES CC(=O)N[C@H]1CSCc2cc3cc(c2)CSC[C@H](NC(=O)[C@H](Cc2ccc(NC(=N)N)cc2)NC(=O)[C@H](C)NC(=O)[C@@H]2CCCN2C(=O)[C@H](Cc2c[nH]c4ccccc24)NC(=O)[C@H](CO)NC1=O)C(=O)N[C@@H](CC(C)C)C(=O)N[C@@H](Cc1c[nH]cn1)C(=O)N[C@@H](CCC(N)=O)C(=O)N[C@@H](CC(=O)O)C(=O)N[C@@H](CC(C)C)C(=O)N[C@H](C(N)=O)CSC3) [Ac-(06-34-18) 4GuanPhe5]
Ki, nM: 0.3

Source listed as patent US10800813.
